- subject.of.test: Peroxisome proliferator-activated receptor alpha (Homo sapiens) (UniProt Q07869)
- Sequence (Q07869 whole entry, looked up): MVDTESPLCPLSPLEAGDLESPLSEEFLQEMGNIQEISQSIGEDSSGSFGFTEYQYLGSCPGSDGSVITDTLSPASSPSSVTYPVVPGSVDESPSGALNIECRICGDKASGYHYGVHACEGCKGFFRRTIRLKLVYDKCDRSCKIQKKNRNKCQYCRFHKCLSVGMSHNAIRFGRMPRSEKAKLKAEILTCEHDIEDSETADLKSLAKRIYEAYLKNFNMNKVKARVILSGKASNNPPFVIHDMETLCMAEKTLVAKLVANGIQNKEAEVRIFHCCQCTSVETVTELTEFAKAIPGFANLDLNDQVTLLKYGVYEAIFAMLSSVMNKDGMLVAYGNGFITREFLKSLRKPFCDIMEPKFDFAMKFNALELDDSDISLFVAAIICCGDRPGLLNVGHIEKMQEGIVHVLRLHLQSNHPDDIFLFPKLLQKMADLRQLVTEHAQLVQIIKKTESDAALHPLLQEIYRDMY
- method.description: qHTS assay for small molecule agonists of the peroxisome proliferator-activated receptor alpha (PPARalpha) signaling pathway (AID 651778); further: % of control where 0% means no effect
- test.settings: PathHunter PPARalpha complementation, chemiluminescence, 6 h; hits give high values
Reported max response values for the following molecules.
Supply the numeric figure in %, leaving out any unit text.

• CO[C@H]1/C=C/O[C@@]2(C)Oc3c(C)c(O)c4c(O)c(c5c(c4c3C2=O)NC2(CCN(CC(C)C)CC2)N=5)=NC(=O)/C(C)=C\C=C\[C@H](C)[C@H](O)[C@@H](C)[C@@H](O)[C@@H](C)[C@H](OC(C)=O)[C@@H]1C = -2.63

Inquiry: Sample Cc1cccc(O)c1C — what was its max response?
Reply text: -2.92

###

Reported activity change, negative = inhibition values for the following compounds.
- method.description: NFAT Signaling Pathway (AID 444);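 further: carbachol stimulus at about its EC50 of 1 µM final; on the % scale 0 is the no-effect control and ±100 the full control effect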
- test.settings: Jurkat NFAT-bla M1, carbachol, beta-lactamase ratio, 5 h; at 17.2 µM (top of the series) unless noted
Inconclusive results are not listed.
Supply the numeric figure in %, leaving out any unit text.

A selection of reference data follows.
• CC(C)COc1ccc(C(=O)NC(CC(C)C)C(=O)O)cc1 (stereo unspecified) = -7.69
• COc1ccc(Cn2ccnc2)cc1Br = -14
• COc1ccc(/C(O)=C2/C(=O)C(=O)N(CCCN(C)C)C2c2cccc(Cl)c2)cc1OC (stereo unspecified) = 6.97
• COc1cccc(C2C(C(=O)c3cccs3)=C(O)C(=O)N2c2cc(C)on2)c1 (stereo unspecified) = 16.2
• Cc1csc2nc(CSc3nc4ccccc4o3)cn12 = -1.77

Shift focus to the following entry.
Inquiry: Sample CN1CCN(CCCCC(=O)c2ccccc2)CC1 — what was its activity change, negative = inhibition?
Reply text: -15.1

###

- method.description: Cell Viability - LYMP1-002 - Assay at 16 hr (AID 948)
- test.settings: LYMP1-002 lymphoblastoid cell viability; series mostly up to 92.2 µM
- Source text: NIH Chemical Genomics Center [NCGC] NIH Molecular Libraries Screening Centers Network [MLSCN] National Institutes of Environmental Health Sciences [NIEHS] National Toxicology Program [NTP] We have developed a 1536-well cell-based assay for quantitative high throughput screening (qHTS) against a number of cell lines to determine in vitro cytotoxicity of small molecules. […] 8. Detection; Luminescence; Viewlux plate reader […]
Inconclusive results are not listed. The source made the active and inactive calls. Calls come from the whole dose curve; as a rule, active = well fitted cell-killing curve with a large enough effect; inconclusive = small, poorly fitted or top-dose-only effect; inactive = flat fitted curve, though single readings scatter.
Answer with one of the outcomes given here: active, inactive

* Cc1cc(Nc2ccc(O)cc2)ccc1N | inactive
* CC(=O)Nc1ccc(C(=O)CCl)cc1 | active
* CN(C)c1ccc(C2(c3ccc(N(C)C)cc3)OC(=O)c3cc(N(C)C)ccc32)cc1 | inactive
* C=C(C)c1ccccc1 | inactive
* CCCCCC/C(C=O)=C\c1ccccc1 | inactive

Inquiry: Kindly provide the recorded test outcome for the following molecule: CCC(C)Nc1ccc(NC(C)CC)cc1 (stereo not drawn)
Reply text: active

Inquiry: Kindly provide the recorded test outcome for the following molecule: Nc1ccc2cc3ccccc3cc2c1
Reply text: inactive

Inquiry: Kindly provide the recorded test outcome for the following molecule: O=C(OCC(COC(=O)c1ccccc1)(COC(=O)c1ccccc1)COC(=O)c1ccccc1)c1ccccc1
Reply text: inactive

###

- System: CP247
- method.description: qHTS profiling for inhibitors of Plasmodium falciparum proliferation (AID 504749); further: nearly all actives have a fitted effect of over 60% in size
- test.settings: P. falciparum in erythrocytes, SYBR Green DNA, 72 h; series mostly up to 28.7 µM
Records with an inconclusive call do not appear. Activity calls are given as the source filed them. Calls follow the shape of the dose curve; as a rule, active = well fitted inhibition curve with a large enough effect; inconclusive = small, poorly fitted or top-dose-only effect; inactive = flat fitted curve, though single readings scatter.
Answer with one of the outcomes given here: 1 (yes) = active, 0 (no) = inactive

- NC(=O)NC(CCC(=O)O)C(=O)O (stereo not given): 0 (no)
- CCCCC(=O)O[C@]1(C(=O)CO)CCC2C3CCC4=CC(=O)CCC4(C)C3C(O)CC21C (stereo not given in full): 0 (no)
- CC(=O)N[C@H]1[C@H](O[C@@H]2c3ccc(c(Cl)c3)Oc3cc4cc(c3O[C@@H]3O[C@H](CO)[C@@H](O)[C@H](O)C3C)Oc3ccc(cc3Cl)C[C@H]3NC(=O)[C@@H](N)c5ccc(O)c(c5)Oc5cc(O)cc(c5)[C@H](NC3=O)C(=O)N[C@H]4C(=O)N[C@H]3C(=O)N[C@@H]2C(=O)N[C@@H](C(=O)O)c2cc(O)cc(O[C@H]4O[C@H](CO)[C@@H](O)C(O)[C@@H]4O)c2-c2cc3ccc2O)O[C@H](CO)[C@@H](O)[C@@H]1O (stereo not given in full): 0 (no)
- C[C@@H]1CC2C3CCC4=CC(=O)C=C[C@]4(C)[C@@]3(F)[C@@H](O)C[C@]2(C)[C@@]1(O)C(=O)COC(=O)c1cccc(S(=O)(=O)O)c1 (stereo not given in full): 0 (no)
- CC[C@@H]1/C=C(\C)C[C@H](C)C[C@H](OC)[C@H]2O[C@@](O)(C(=O)C(=O)N3CCCC[C@H]3C(=O)O[C@H](/C(C)=C/[C@@H]3CC[C@H](Cl)[C@H](OC)C3)[C@H](C)[C@@H](O)CC1=O)[C@H](C)C[C@@H]2OC: 0 (no)

Inquiry: Kindly provide the recorded test outcome for the following molecule: Oc1cc2cc(CCN3CCN(c4nsc5ccccc45)CC3)c(Cl)cc2[nH]1
Reply text: 1 (yes)

Inquiry: Kindly provide the recorded test outcome for the following molecule: OCC1O[C@H](O[C@H]2C(O)C(O)C(O)O[C@@H]2CO)C(O)C(O)C1O (stereo not given in full)
Reply text: 0 (no)

Attribution: PubChem BioAssay (NCATS)
